target: CK2α (Homo sapiens, UniProt P68400, Y239F); assay: Microscale thermophoresis (MST) with CK2α-DBCO-Sulfo-Cy5; format: binding; conditions: 100 nM CK2α-DBCO-Sulfo-Cy5, B2 7.6 nM to 125 µM, 37 °C, mean of three independent measurements
Sequence (P68400 whole entry Y239F): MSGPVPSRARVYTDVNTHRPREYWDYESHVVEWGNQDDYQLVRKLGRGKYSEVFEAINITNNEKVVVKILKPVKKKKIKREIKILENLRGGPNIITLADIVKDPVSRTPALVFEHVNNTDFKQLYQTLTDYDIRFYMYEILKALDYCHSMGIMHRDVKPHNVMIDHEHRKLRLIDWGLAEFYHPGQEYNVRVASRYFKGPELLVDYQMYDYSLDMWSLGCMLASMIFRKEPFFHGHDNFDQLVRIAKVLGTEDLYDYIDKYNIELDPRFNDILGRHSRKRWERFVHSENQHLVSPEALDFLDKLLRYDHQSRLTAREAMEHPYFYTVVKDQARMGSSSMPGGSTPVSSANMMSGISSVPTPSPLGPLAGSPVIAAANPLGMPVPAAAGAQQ
No end group written: not given here.
attribute.measured: Kd

DCRGLIVMIKLH [Peptide B2]	2160 nM

---

target: CK2β (Homo sapiens, UniProt P67870, Y174F); construct: a truncated version of CK2β (CK2β^1–193) was applied; made in house; host or cells: E. coli BL21(DE3); assay: Microscale thermophoresis (MST) with CK2β1-193-Flu; assay type: binding
No end group written: not given here.
attribute.measured: Kd

DCRGLIVMIKLH [Peptide B2]	> 100 µM

This collection of values is drawn from paper PMC5374410.
